# IC50 annotations
Molecular target: recombinant CYP-21 (Homo sapiens, UniProt P08686)
Construct: expressed in transfected cells
Sequence (P08686 whole entry, species assumed): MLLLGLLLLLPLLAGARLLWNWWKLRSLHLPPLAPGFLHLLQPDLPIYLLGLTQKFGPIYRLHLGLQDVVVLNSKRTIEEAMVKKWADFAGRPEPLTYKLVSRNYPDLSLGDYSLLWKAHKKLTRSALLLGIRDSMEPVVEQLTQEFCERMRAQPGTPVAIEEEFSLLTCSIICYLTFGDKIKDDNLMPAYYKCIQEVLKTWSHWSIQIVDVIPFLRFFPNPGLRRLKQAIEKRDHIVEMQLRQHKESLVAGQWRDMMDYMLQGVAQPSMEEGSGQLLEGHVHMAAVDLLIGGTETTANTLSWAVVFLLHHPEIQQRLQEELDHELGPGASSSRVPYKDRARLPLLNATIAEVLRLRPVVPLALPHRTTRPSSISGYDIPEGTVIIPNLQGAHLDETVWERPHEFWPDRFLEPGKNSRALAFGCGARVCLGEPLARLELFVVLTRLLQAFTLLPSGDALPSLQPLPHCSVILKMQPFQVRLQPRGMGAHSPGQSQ
Experiment: Cyp21 assay: AD293 cells over-expressing recombinant CYP-21, 11-deoxycortisol formation from 17α-OH Progesterone by LC/MS
Type: cell-based
Settings: eight concentrations 10 μM to 4.5 nM
Give me the value, and tack the unit on after it.

Worked examples follow.
COC(=O)N1CCN(c2ccc(OC[C@@H]3CO[C@@](Cn4ccnc4)(c4ccc(Cl)cc4Cl)O3)cc2)CC1 (racemic) [Entry 1] ... 160 nM
O=S(=O)(CC(F)(F)F)N1CCN(c2ccc(OC[C@@H]3CO[C@@](Cn4ccnc4)(c4ccc(Cl)cc4Cl)O3)cc2)CC1 [Entry 20] ... 78 nM
COC(=O)[C@H](Cc1ccccc1)NC(=O)N1CCN(c2ccc(OC[C@H]3CO[C@](Cn4ccnc4)(c4ccc(Cl)cc4Cl)O3)cc2)CC1 [Entry 19] ... 740 nM

Now for a further molecule.
**Query** # get_value(readout='IC50', item= CCCS(=O)(=O)N1CCN(c2ccc(OC[C@@H]3CO[C@@](Cn4ccnc4)(c4ccc(Cl)cc4Cl)O3)cc2)CC1 [Entry 22] )
**Result** 128 nM

----------
Molecular target: recombinant CYP-17 (Homo sapiens, UniProt P05093)
Sequence (P05093 1-508): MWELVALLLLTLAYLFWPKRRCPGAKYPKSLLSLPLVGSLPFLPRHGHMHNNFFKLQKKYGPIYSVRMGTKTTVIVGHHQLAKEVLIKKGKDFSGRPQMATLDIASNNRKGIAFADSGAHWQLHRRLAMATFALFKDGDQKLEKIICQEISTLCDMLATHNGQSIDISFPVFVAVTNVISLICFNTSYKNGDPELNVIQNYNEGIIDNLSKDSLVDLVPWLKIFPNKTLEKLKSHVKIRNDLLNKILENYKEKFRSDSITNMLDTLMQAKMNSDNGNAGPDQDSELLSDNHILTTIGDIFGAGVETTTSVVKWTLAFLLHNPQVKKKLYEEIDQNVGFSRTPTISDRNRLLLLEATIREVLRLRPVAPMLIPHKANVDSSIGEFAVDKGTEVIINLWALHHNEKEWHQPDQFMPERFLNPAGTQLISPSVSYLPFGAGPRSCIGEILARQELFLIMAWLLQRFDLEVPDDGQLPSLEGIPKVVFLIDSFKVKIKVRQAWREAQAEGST
Test: Cyp17 assay: AD293 cells over-expressing recombinant CYP-17, 3H-acetic acid release from [21-3H] 17α-hydroxyl-Pregnenolone
Conditions: AD293 cells, eight concentrations 10 μM to 4.5 nM
Here, each record is paired with measured pIC50 data.
Reminder that pIC50 is minus the log10 of a molar concentration.

Example entries and their recorded answers appear below.
CCNC(=O)N1CCN(c2ccc(OC[C@@H]3CO[C@@](Cn4ccnc4)(c4ccc(Cl)cc4Cl)O3)cc2)CC1 [Entry 12] ... 7.46
O=S(=O)(CC(F)F)N1CCN(c2ccc(OC[C@@H]3CO[C@@](Cn4ccnc4)(c4ccc(Cl)cc4Cl)O3)cc2)CC1 [Entry 29] ... 7.96
N=C(N)N1CCN(c2ccc(OC[C@@H]3CO[C@@](Cn4ccnc4)(c4ccc(Cl)cc4Cl)O3)cc2)CC1 [Entry 33] ... 6.47

Let us examine a further case.
**Query** Fill blank: measured pIC50 of the compound O=S(=O)(CC(F)(F)F)N1CCN(c2ccc(OC[C@@H]3CO[C@@](Cn4ccnc4)(c4ccc(Cl)cc4Cl)O3)cc2)CC1 [Entry 20] is ____.
**Result** 6.21
